Data origin, for the record: patent US20080026996A1

Reported pIC50 values for the following substances.
Biological target: human VPAC2 (Homo sapiens, UniProt P41587)
Construct: expressed in transfected cells
Sequence (P41587 24-438): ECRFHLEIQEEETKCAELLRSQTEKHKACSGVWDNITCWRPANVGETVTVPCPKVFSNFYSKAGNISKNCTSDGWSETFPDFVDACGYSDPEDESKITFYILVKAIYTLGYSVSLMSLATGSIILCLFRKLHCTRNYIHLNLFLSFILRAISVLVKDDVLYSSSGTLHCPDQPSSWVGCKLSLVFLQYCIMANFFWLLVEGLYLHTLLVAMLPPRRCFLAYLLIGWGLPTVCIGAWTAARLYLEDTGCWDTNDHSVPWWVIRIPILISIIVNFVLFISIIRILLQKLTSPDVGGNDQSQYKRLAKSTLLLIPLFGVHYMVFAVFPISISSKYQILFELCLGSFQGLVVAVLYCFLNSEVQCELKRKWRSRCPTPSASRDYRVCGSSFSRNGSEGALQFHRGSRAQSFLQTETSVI
Assay: Filter binding assay, membranes of stable VPAC2 cell line, 125I-labeled VIP tracer (Table 2)
Details: read-out: Human VPAC2 Receptor Binding
pIC50: −log10 of the molar value. Where no end group is shown, it is not given here. [ ]: non-standard residue; d: D form. The star is where a group is joined. Hexanoyl = CCCCCC(=O)*; Aib = CC(C)(N)C(=O)O

substance: H-HSDAVFTDNYTRAKAKVAAKKYLQSIKNKRYGGPSSGAPPPS [Agonist P94]
pIC50: 7.15

substance: Hexanoyl-HSDAVFTDNYTRLRKQVAAYKYLQSIKNKRYGGPSSGAPPPS [Agonist P147]
pIC50: 9.62

substance: Hexanoyl-HSDAVFTDNYTRLRKQVAAKKYLQQIKNKRYGGPSSGAPPPS [Agonist P124]
pIC50: 9.70

substance: Hexanoyl-HSDAVFTDNYTRLR[Aib]QVAALKYLQSIKNKRYGGPSSGAPPPS [Agonist P265]
pIC50: 9.17

substance: Hexanoyl-HSDAVFTDNYTRLRKQVAAKKYLQSIKNSRGGPSSGAPPPS [Agonist P122]
pIC50: 9.77

substance: Hexanoyl-HSDAVFTDNYTRLRKQVAAKKYLQWIKNKRYGGPSSGAPPPS [Agonist P117]
pIC50: 9.29

substance: Hexanoyl-HSDAVFTDNYTRLRKQVAAKKYLQFIKNKRYGGPSSGAPPPS [Agonist P112]
pIC50: 9.31

substance: H-H[dA]DAVFTDNYTRLRKQVAAKKYLQSIKNKRYGGPSSGAPPPS [Agonist P47]
pIC50: 9.08

substance: Hexanoyl-HSDAVFTDNYTRLRKQVAAKKYLQTIKNKRYGGPSSGAPPPS [Agonist P115]
pIC50: 10.00

substance: Hexanoyl-HSDAVFTDNYTRLLAKLAAQKYLQSIKNKRYGGPSSGAPPPS [Agonist P197]
pIC50: 9.51

substance: Hexanoyl-HSDAVFTDNYTRLRKQVAAKKYLQSWKNKRYGGPSSGAPPPS [Agonist P110]
pIC50: 10.00
